Test system: guinea pig trachea
Test: relaxing action on guinea pig trachea contracted beforehand with methacholine (in vitro, organ bath)
Format: cell-based
Settings: Cavia porcellus; in vitro relaxation of methacholine-contracted guinea pig trachea segments, cumulative dose/effect curve, 37° C., n = 3 to 6; read-out: -log[EC50 (mol/l)] (converted)
Hi there, I'd appreciate the recorded EC50 for every entry that follows.
Give the number; nM is assumed, so skip it.

Query: EC50; subject: Nc1c(Cl)cc(C(O)CNCCCCCCOC(=O)CCc2ccc(O)cc2)cc1Cl (stereo not shown) [Compound 17] 20

Next: Nc1c(Cl)cc(C(O)CNCCCCCC(=O)OCCc2cccc3ccccc23)cc1Cl (stereo not shown) [Compound 19] 6.31

Also need Nc1c(Cl)cc(C(O)CNCCCCCCOC(=O)Cc2cccc3ccccc23)cc1Cl (stereo not shown) [Compound 34] , thanks. 3.16

Proceed to O=C(CCCCCNCC(O)c1ccc(O)c(CO)c1)OCCCCc1ccccc1 (stereo not shown) [Compound 64] 10
